experiment: Specific binding of ^3H-PGG-Glucan to sphingolipids in the 96-well plate assay; set-up: unit not given here; details: LacCer of defined fatty acid and long chain base, 96-well plate
Property: ^3H-PGG-Glucan bound (specific binding); scope: individual molecules
Attribute measured: ^3H-PGG-Glucan bound (specific binding)

1) CCCCCCCCCCCCCCCCCC(=O)NC(CO[C@@H]1O[C@H](CO)[C@@H](O[C@@H]2O[C@H](CO)[C@H](O)[C@H](O)[C@H]2O)[C@H](O)[C@H]1O)C(O)CCCCCCCCCCCCCCC (mixture of isomers) [N-Stearoyl-DL-dihydrolacto-cerebroside] :: 0.00
2) CCCCCCCCCCCCCCCC(=O)NC(CO[C@@H]1O[C@H](CO)[C@@H](O[C@@H]2O[C@H](CO)[C@H](O)[C@H](O)[C@H]2O)[C@H](O)[C@H]1O)C(O)CCCCCCCCCCCCCCC (mixture of isomers) [N-Palmitoyl-DL-dihydrolacto-cerebroside] :: 0.00
3) CCCCCCCCCCCCC/C=C/[C@@H](O)[C@H](CO[C@@H]1O[C@H](CO)[C@@H](O[C@@H]2O[C@H](CO)[C@H](O)[C@H](O)[C@H]2O)[C@H](O)[C@H]1O)NC(=O)CCCCCCCCCCCCCCCCC :: 1.93
4) CCCCCCCCCCCCC/C=C/[C@@H](O)[C@H](CO[C@@H]1O[C@H](CO)[C@@H](O[C@@H]2O[C@H](CO)[C@H](O)[C@H](O)[C@H]2O)[C@H](O)[C@H]1O)NC(=O)CCCCCCCCCCCCCCCCCCCCCCC :: 3.14
5) CCCCCCCCCCCCCC=CC(O)C(COC1OC(CO)C(OC2OC(CO)C(O)C(O)C2O)C(O)C1O)NC(=O)CCCCCCCCCCCCCCC (stereo not shown) :: 3.31
6) CCCCCCCCCCCCCCCCCCCCCCCC(=O)NC(CO[C@@H]1O[C@H](CO)[C@@H](O[C@@H]2O[C@H](CO)[C@H](O)[C@H](O)[C@H]2O)[C@H](O)[C@H]1O)C(O)CCCCCCCCCCCCCCC (mixture of isomers) :: 0.00
7) CCCCCCCCCCCCCC=CC(O)C(COC1OC(CO)C(OC2OC(CO)C(O)C(O)C2O)C(O)C1O)NC(=O)CCCCCCCCCCCCCCCCCCCCC (stereo not shown) :: 3.57
